assay: Pharmacokinetics: plasma concentrations by LC-MS/MS, noncompartmental analysis; assay type: in vivo; details: human, po, 50 mg, Day 1 (Dose 1), 50 mg oral TIW, read-out: t½, geometric mean (range) (converted)

MOLECULAR STRING	half-life [h]
C[C@H](NC(=O)CCC(F)(F)F)C(=O)N[C@@H]1C(=O)N(CCO)c2ncccc2-c2ccccc21	3.89

---

assay: Pharmacokinetics: plasma concentrations by LC-MS/MS, noncompartmental analysis; format: in vivo; details: human, po, 50 mg, Day 1 (Dose 1), 50 mg oral TIW, read-out: tmax, median (range)

COMPOUND	UNIT NAME	Tmax
C[C@H](NC(=O)CCC(F)(F)F)C(=O)N[C@@H]1C(=O)N(CCO)c2ncccc2-c2ccccc21 [Crenigacestat, crenigacestat]	h	1.93

---

experiment: Pharmacokinetics: plasma concentrations by LC-MS/MS, noncompartmental analysis; format: in vivo; conditions: human, po, 25 mg, Day 1 (Dose 1), 25 mg oral TIW, geometric mean (%CV)

MOLECULAR STRING	Cmax (ng/mL)
C[C@H](NC(=O)CCC(F)(F)F)C(=O)N[C@@H]1C(=O)N(CCO)c2ncccc2-c2ccccc21	324

---

assay: Pharmacokinetics: plasma concentrations by LC-MS/MS, noncompartmental analysis; type: in vivo; conditions: human, Day 1 (Dose 1), 50 mg oral TIW, geometric mean (%CV)
OUTCOME MEASURE: AUC(0-inf)

MOLECULAR STRING	ASSAY RESULT
C[C@H](NC(=O)CCC(F)(F)F)C(=O)N[C@@H]1C(=O)N(CCO)c2ncccc2-c2ccccc21	3080 ng·h/mL

---

experiment: Pharmacokinetics: plasma concentrations by LC-MS/MS, noncompartmental analysis; assay type: in vivo; settings: human, po, 25 mg, Day 22 (Dose 10), 25 mg oral TIW, read-out: t½, geometric mean (range) (converted)

MOLECULAR STRING	half-life
C[C@H](NC(=O)CCC(F)(F)F)C(=O)N[C@@H]1C(=O)N(CCO)c2ncccc2-c2ccccc21	4.19 h

---

assay: Pharmacokinetics: plasma concentrations by LC-MS/MS, noncompartmental analysis; format: in vivo; settings: human, po, 50 mg, Day 1 (Dose 1), 50 mg oral TIW, geometric mean (%CV)
OUTCOME MEASURE: Cmax

COMPOUND	ASSAY RESULT
C[C@H](NC(=O)CCC(F)(F)F)C(=O)N[C@@H]1C(=O)N(CCO)c2ncccc2-c2ccccc21 [Crenigacestat, crenigacestat]	670 ng/mL

---

experiment: Pharmacokinetics: plasma concentrations by LC-MS/MS, noncompartmental analysis; assay type: in vivo; details: human, po, 25 mg, Day 22 (Dose 10), 25 mg oral TIW, geometric mean (%CV), read-out: AUC0–48

COMPOUND	AUC(0-t) / ng·h/mL
C[C@H](NC(=O)CCC(F)(F)F)C(=O)N[C@@H]1C(=O)N(CCO)c2ncccc2-c2ccccc21 [Crenigacestat, crenigacestat]	2070

---

experiment: Pharmacokinetics: plasma concentrations by LC-MS/MS, noncompartmental analysis; format: in vivo; conditions: human, po, 25 mg, Day 22 (Dose 10), 25 mg oral TIW, read-out: tmax, median (range)
OUTCOME MEASURE: Tmax (h)

MOLECULAR STRING	ASSAY RESULT
C[C@H](NC(=O)CCC(F)(F)F)C(=O)N[C@@H]1C(=O)N(CCO)c2ncccc2-c2ccccc21	1.88

---

assay: Pharmacokinetics: plasma concentrations by LC-MS/MS, noncompartmental analysis; assay type: in vivo; details: human, po, 50 mg, Day 22 (Dose 10), 50 mg oral TIW, read-out: tmax, median (range)

MOLECULAR STRING	Tmax
C[C@H](NC(=O)CCC(F)(F)F)C(=O)N[C@@H]1C(=O)N(CCO)c2ncccc2-c2ccccc21	1.94 h

---

assay: Pharmacokinetics: plasma concentrations by LC-MS/MS, noncompartmental analysis; assay type: in vivo; conditions: human, po, 50 mg, Day 22 (Dose 10), 50 mg oral TIW, read-out: t½, geometric mean (range) (converted)
OUTCOME MEASURE: half-life (h)

COMPOUND	OUTCOME MEASURE	ASSAY RESULT
C[C@H](NC(=O)CCC(F)(F)F)C(=O)N[C@@H]1C(=O)N(CCO)c2ncccc2-c2ccccc21 [Crenigacestat, crenigacestat]	half-life	3.67

---

experiment: Pharmacokinetics: plasma concentrations by LC-MS/MS, noncompartmental analysis; type: in vivo; conditions: human, po, 25 mg and 50 mg oral TIW, read-out: Mean t1/2 (converted)

MOLECULAR STRING	half-life
C[C@H](NC(=O)CCC(F)(F)F)C(=O)N[C@@H]1C(=O)N(CCO)c2ncccc2-c2ccccc21	~4 h

---

assay: Pharmacokinetics: plasma concentrations by LC-MS/MS, noncompartmental analysis; assay type: in vivo; conditions: human, po, 25 mg, Day 1 (Dose 1), 25 mg oral TIW, read-out: t½, geometric mean (range) (converted)
OUTCOME MEASURE: half-life (h)

COMPOUND	ASSAY RESULT
C[C@H](NC(=O)CCC(F)(F)F)C(=O)N[C@@H]1C(=O)N(CCO)c2ncccc2-c2ccccc21 [Crenigacestat, crenigacestat]	3.64
